Where do the numbers come from? From PubChem BioAssay (NCI).

# System: EKVX NSCLC
# experimentSummary: NCI tumour cell line growth inhibition, 48 h
measuredProperty: TGI

Worked cases, answers included:
INSERT INTO assay_data (molecule, measuredproperty, experimentalvalue) VALUES
  ('O=C(O)c1ccc(NC(NC(=O)C(C(F)(F)F)C(F)(F)F)(C(F)(F)F)C(F)(F)F)cc1', 'TGI', '> 100 µM'),
  ('CCOC(=O)[C@@]12C[C@](/C=C/OC)(O[Si](C)(C)C)[C@@]13c1cc(OC)c(OC)cc1CCN3C(=O)C2O (stereo not given in full)', 'TGI', '> 100 µM'),
  ('CN(Cc1cc(Br)cc(Br)c1O)Cc1cc(Br)cc(Br)c1O', 'TGI', '20.2 µM'),
  ('CC(=O)CSc1c(-c2ccccc2)c(=O)n(-c2ccccc2)c(=S)n1-c1ccccc1', 'TGI', '> 100 µM');

Could you now consider this next molecule?
Ask | Entry CCc1n[nH]c(=O)n1/N=C/c1ccc(C)cc1 : reported TGI = ?
Reply | > 100 µM

---

TGI for assorted compounds
# Test system: PC-3 prostate
# experimentSummary: NCI tumour cell line growth inhibition, 48 h
API: value field is a number in µM; no unit string.

INSERT INTO measurements (compound, measuredproperty, experimentalvalue) VALUES
  ('C/C(=C\CCc1ccoc1)CC/C=C(\C)CCCN1CCOCC1', 'TGI', 10.5),
  ('CC(=O)O[C@H]1/C(=C/c2ccncc2)C[C@H]2[C@@H]3CC=C4C[C@@H](N5CCCC5)CC[C@]4(C)[C@H]3CC[C@]12C', 'TGI', 26.6);

Could you now consider this next compound?
Ask | Entry CCC[C@H](NS(=O)c1ccc(C)cc1)C(C(=O)OCC)=C(c1ccccc1)c1ccccc1 (stereo partly specified) : reported TGI = ?
Reply | 50.7

---

TGI for assorted molecules
# Test system: NCI-H226 lung
# experimentSummary: NCI tumour cell line growth inhibition, 48 h

Worked cases, answers included:
INSERT INTO results (molecule, experimentalvalue) VALUES
  ('Cc1cc2c(cc1C)[n+](=O)c(C(=O)C/C(=N/OCCCc1ccccc1)C(=O)Nc1cc(Cl)ccc1Cl)c(C)n2[O-]', '> 100 µM'),
  ('COC(=O)/C=C(\C(=O)OC)c1c2c3c(cc(OC)c(OC)c3c3ccccc13)CCN2C', '> 100 µM'),
  ('C1=C(c2ccccc2)Nc2nnnn2C1c1ccccc1 (stereo unspecified)', '> 100 µM'),
  ('CC(C)(C)OC(=O)NCCc1cccc2c1oc1c(CCC(=O)O)cccc12', '> 100 µM'),
  ('CC(=O)Nc1cc(N(CCOS(C)(=O)=O)CCOS(C)(=O)=O)ccc1N=O', '> 100 µM'),
  ('O=C1C(=O)c2c(nc3ccc(Br)cn23)-c2ccccc21', '3.41 µM'),
  ('CC(C)(C)C(=O)OCOP(=O)(OCOC(=O)C(C)(C)C)C1CC(O)N(O)C1=O (stereo unspecified)', '> 100 µM'),
  ('Nc1ccn(C2CCC(CO)O2)c(=S)n1 (stereo unspecified)', '> 100 µM');

Ask | Entry NC(N)=N/N=C/c1c(-c2cc(Cl)sc2Cl)nc2sccn12 : reported TGI = ?
Reply | 18.9 µM

Ask | Entry N#C/C(C(=O)Nc1ccc(Cl)cc1)=C(/N)N1CCCCC1 : reported TGI = ?
Reply | > 100 µM

Ask | Entry OCC(O)C(O)C(O)c1nn(-c2ccc(Cl)cc2)c2nc3cc(Cl)c(Cl)cc3nc12 (stereo unspecified) : reported TGI = ?
Reply | 58.4 µM

Ask | Entry O=C(Nc1ccccc1)N(C1=NCC(CI)S1)c1ccc(F)cc1F (stereo unspecified) : reported TGI = ?
Reply | > 100 µM

Ask | Entry O=C(c1ccccc1)c1ccc(-n2c3ccccc3c3ccc4c(c32)C(=O)C=CC4=O)cc1 : reported TGI = ?
Reply | 53.8 µM

---

# System: OVCAR-8 ovarian
# experimentSummary: NCI tumour cell line growth inhibition, 48 h
TGI for assorted compounds

Worked cases, answers included:
INSERT INTO measurements (compound, assayedtarget, experimentalvalue) VALUES
  ('c1cc2c(c(NC3=NCCO3)c1)CCC2', 'OVCAR-8 ovarian', '> 100 µM'),
  ('CS(=O)(=O)Nc1ccc(-c2cc(-c3ccccc3)cc(C(N)=O)c2N)cc1', 'OVCAR-8 ovarian', '> 25 µM');

Could you now consider this next compound?
Ask | Entry COC(=O)C(CC(C)C)NC(=O)NC12CC3CC(CC(F)(C3)C1)C2 (stereo not drawn) : reported TGI = ?
Reply | > 100 µM

---

# Tested on: SK-MEL-5 melanoma
# experimentSummary: NCI tumour cell line growth inhibition, 48 h
TGI for assorted compounds

Worked cases, answers included:
INSERT INTO measurements (compound, experimentalvalue) VALUES
  ('CCOC(=O)[C@@]12C3C=CC(CC3)[C@]1(C(=O)c1ccccc1)C(=O)C(=O)N2c1ccccc1 (stereo partly specified)', '> 100 µM'),
  ('COc1ccc(/C(O)=C/c2nc3cccnc3nc2/C=C(\O)c2ccc(OC)cc2)cc1', '78.3 µM'),
  ('c1ccc(-n2nc3ccc4nonc4c3n2)cc1', '> 100 µM'),
  ('CCC[C@H](NS(=O)c1ccc(C)cc1)C(C(=O)OCC)=C(c1ccccc1)c1ccccc1 (stereo partly specified)', '44.4 µM'),
  ('Cc1ccc(S(=O)(=O)N2CCSCCN(S(=O)(=O)c3ccc(C)cc3)CCN(S(=O)(=O)c3ccc(C)cc3)CC2)cc1', '> 100 µM');

Could you now consider this next compound?
Ask | Entry CCOC(=O)[C@@]12C[C@](/C=C/OC)(O[Si](C)(C)C)[C@@]13c1cc(OC)c(OC)cc1CCN3C(=O)C2O (stereo partly specified) : reported TGI = ?
Reply | > 100 µM

---

# Tested on: A498 renal
# experimentSummary: NCI tumour cell line growth inhibition, 48 h
measuredProperty: TGI (µM)
API: value field is a number in µM; no unit string.

INSERT INTO measurements (compoundstructurestring, experimentalvalue) VALUES
  ('CCOc1ccc(N/C(Cl)=C(Cl)\C(=C(\Nc2ccc(OCC)cc2)n2nnc3ccccc32)[N+](=O)[O-])cc1', 39);

Ask | Entry COc1ccc(OCc2ccc3nc(-c4ccccc4)c(Cl)nc3c2)cc1 : reported TGI = ?
Reply | 81.2

Ask | Entry COc1cc(S(=O)(=O)Nc2ccc(-c3csc(N)n3)cc2)ccc1Cl : reported TGI = ?
Reply | 59.2

---

# Test system: OVCAR-5 ovarian
# experimentSummary: NCI tumour cell line growth inhibition, 48 h
measuredProperty: TGI

Worked cases, answers included:
INSERT INTO results (compound, measuredproperty, experimentalvalue) VALUES
  ('NS(=O)(=O)c1ccc(NC2=CC(=O)C(=O)c3ccccc32)cc1', 'TGI', '> 100 µM'),
  ('O=CNc1ncn[nH]1', 'TGI', '> 100 µM'),
  ('CC1=C/C(=N\O)C(C(O)(C(F)(F)F)C(F)(F)F)C(C)(C)C1 (stereo unspecified)', 'TGI', '> 10 µM'),
  ('COC(=O)/C(=N\Nc1nc(=S)[nH]n1N)C(C#N)c1ccccc1 (stereo unspecified)', 'TGI', '> 100 µM'),
  ('Oc1ccc(N=C2CCC(=C(c3ccccc3)c3ccc(Nc4ccc(O)cc4)cc3)CC2)cc1', 'TGI', '> 100 µM');

Ask | Entry COc1ccc2c(CN3CCC(C(=O)O)CC3)cc3cc4c(cc3c2c1)OCO4 : reported TGI = ?
Reply | 6.87 µM

Ask | Entry COc1ccc2cc(C(=O)O)ccc2c1OC : reported TGI = ?
Reply | > 100 µM

Ask | Entry Nc1nc(OCc2cc(Br)cs2)c2[nH]cnc2n1 : reported TGI = ?
Reply | > 100 µM

Ask | Entry NC(=O)CCC(N=C(N)c1csc(C2OC(CO)C(O)C2O)n1)C(=O)O (stereo unspecified) : reported TGI = ?
Reply | > 100 µM

Ask | Entry NC(N)=N/N=C/c1c(-c2cc(Cl)sc2Cl)nc2sccn12 : reported TGI = ?
Reply | 2.05 µM

Ask | Entry CCCCC(Sc1cc(Cl)c(C)cc1S(=O)(=O)Nc1n[nH]c(N)n1)C(=O)OC (stereo unspecified) : reported TGI = ?
Reply | > 10 µM

Ask | Entry Cc1ccc(N=Nc2ccc(O)c(CN(C)C)c2)cc1 : reported TGI = ?
Reply | 29.7 µM

Ask | Entry O=C1c2ccccc2S(=O)(=O)N1CSC(=S)N1CCCCC1 : reported TGI = ?
Reply | > 100 µM

Ask | Entry CC1(C)C(O)C[C@@H](O)[C@@]2(C)C1CC[C@]1(C)C2C[C@@H](O)[C@@H]2C([C@@]3(C)CC[C@@H](C(C)(C)O)O3)CCC21C (stereo partly specified) : reported TGI = ?
Reply | 30.7 µM

Ask | Entry Nc1nc2c(s1)CCc1c-2c(Br)n(Cc2ccccc2)c1Br : reported TGI = ?
Reply | 39.3 µM

Ask | Entry COc1ccc(/C(O)=C/c2nc3cccnc3nc2/C=C(\O)c2ccc(OC)cc2)cc1 : reported TGI = ?
Reply | > 100 µM

Ask | Entry COc1ccc(C(SCC(N)C(=O)O)(c2ccccc2)c2ccccc2)cc1 (stereo unspecified) : reported TGI = ?
Reply | > 100 µM

Ask | Entry C=CC(C1=CC(=O)C(OC)=CC1=O)c1ccccc1 (stereo unspecified) : reported TGI = ?
Reply | 39 µM

Ask | Entry COc1cc(S(=O)(=O)Nc2ccc(-c3csc(N)n3)cc2)ccc1Cl : reported TGI = ?
Reply | 40.4 µM

Ask | Entry Cc1nc2c(=O)n(-c3ccccc3)c3ccccc3c2o1 : reported TGI = ?
Reply | > 100 µM

Ask | Entry CC(C)(C)C(=O)OCOP(=O)(OCOC(=O)C(C)(C)C)C1CC(O)N(O)C1=O (stereo unspecified) : reported TGI = ?
Reply | > 100 µM

Ask | Entry COC1CCN(C(=O)c2cc(Cc3n[nH]c(=O)c4ccccc34)ccc2F)CC1 : reported TGI = ?
Reply | > 100 µM

Ask | Entry c1ccc([P+](Cc2ccccc2C[P+](c2ccccc2)(c2ccccc2)c2ccccc2)(c2ccccc2)c2ccccc2)cc1 : reported TGI = ?
Reply | > 100 µM

Ask | Entry COc1ccc2c(c1)[n+](=O)c(C(=O)c1ccco1)c(C(F)(F)F)n2[O-] : reported TGI = ?
Reply | 22.3 µM

Ask | Entry Cc1ccc(S(=O)(=O)N2CCSCCN(S(=O)(=O)c3ccc(C)cc3)CCN(S(=O)(=O)c3ccc(C)cc3)CC2)cc1 : reported TGI = ?
Reply | > 100 µM

Ask | Entry CC[P+](C)(C)c1ccccc1 : reported TGI = ?
Reply | > 100 µM

Ask | Entry O=C(c1ccccc1)c1ccc(-n2c3ccccc3c3ccc4c(c32)C(=O)C=CC4=O)cc1 : reported TGI = ?
Reply | 38.1 µM
